List of Kd values.
molecular target: P450cam (cytochrome P450cam), WT (Pseudomonas putida, UniProt P00183, C335A/Y97F); assay: constant-volume visible difference spectrophotometric titration; assay type: binding
reported-property: Kd (µM)

> print(dat)
                          compound  reported.property  numeric.result
1               CC12CCC(CC1)C2(C)C                 Kd            10.7
2  CC1(C)C2CCC1(C)C(O)C2 (racemic)                 Kd             1.2

====

target: P450cam (cytochrome P450cam), WT (Pseudomonas putida, UniProt P00183, C335A); assay: visible spectrophotometric titration; assay type: binding
reported-property: Kd (nM)

> print(dat)
                      smiles.entry  reported.property  numeric.result
1  CC1(C)[C@@H]2CC[C@@]1(C)C(=O)C2                 Kd            1800
